subject.of.test: T1, CaBdf1 BD1 (GST-tagged, wild-type) (Candida albicans (strain SC5314 / ATCC …, UniProt Q5A4W8))
T1 chain: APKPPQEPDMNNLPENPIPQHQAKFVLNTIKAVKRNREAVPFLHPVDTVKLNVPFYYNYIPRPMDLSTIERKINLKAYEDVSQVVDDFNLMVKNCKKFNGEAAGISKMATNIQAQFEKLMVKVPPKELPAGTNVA
protocol.notes: histone peptide array (Active Motif MODified), 1 uM GST-tagged bromodomain, anti-GST detection, normalized mean intensity
Ends that are not written are not given here. Me2a = not defined here; me2a = not defined here
property: binding score

>>> df
                                     binder       property    result
0  AR(Me2a)TK(Me2)QTAR(Me2s)K(Me3)STGGKAPRKQ (reading uncertain)  binding score   0.00145
1  ARTK(me2)QTAR(me2a)K(me2)STGGKAPRKQ (reading uncertain)  binding score  0.000725

# query: binding score of entry ARTKQTARKSTGGKAPRKQ (A Rme2s T Kme2 Q T A R Kme3 S T G G K A P R K Q)
0.00145
